# Tested on: UACC-257
# Assay name: NCI tumour cell line growth inhibition, 48 h
Active and inactive are the calls of the source. No stated cut-off is given here; in the data, active = GI50 up to about 1.1 µM and inactive = higher.
Would you mind telling me the reported GI50 of each entry?

Ask: Need GI50, item `COc1ccc(/C=C2/CCS(=O)(=O)c3ccc(C)cc3C2=O)cc1OC`
Reply: 11.9 µM (inactive)

Ask: Need GI50, item `Cc1ccc2c(c1)-c1nc(N)c(C#N)c(-c3ccccc3)c1CCS2(=O)=O`
Reply: 44.9 µM (inactive)

Ask: Need GI50, item `Cc1cc(C)c2c(c1)C(=O)/C(=C/c1ccccc1C(=O)O)C2`
Reply: > 100 µM (inactive)

* * *

# Tested on: A498
# Assay name: NCI tumour cell line growth inhibition, 48 h
Activity calls are given as the source filed them. No stated cut-off is given here; in the data, active = GI50 up to about 1.1 µM and inactive = higher.
Readout: GI50

Ask: Need GI50, item CC(Br)CN1CCOCC1 (stereo not drawn)
Reply: > 100 µM (inactive)

Ask: Need GI50, item CC1=NC(C(C)C)C(=O)O1 (stereo not drawn)
Reply: > 100 µM (inactive)

Ask: Need GI50, item `O=C(Cn1c2ccc(Br)cc2c2nc3ccccc3nc21)N1CCOCC1`
Reply: > 100 µM (inactive)

* * *

# System: RXF 393
# Assay name: NCI tumour cell line growth inhibition, 48 h
Active and inactive are the calls of the source. No stated cut-off is given here; in the data, active = GI50 up to about 1.1 µM and inactive = higher.
The reply should name one outcome from True for active, False for inactive

Ask: Called result for `N=C(/C=C/c1ccc(-c2cn3cc(/C=C/C(=N)N4CCOCC4)ccc3n2)cc1)N1CCOCC1`
Reply: False

Ask: Called result for `O=C(CCc1ccc(O)cc1)NCCc1ccc(O)cc1`
Reply: False

Ask: Called result for `C/C(=N\NC(=S)N1CCN(c2ccccn2)CC1)c1ncccn1`
Reply: False

Ask: Called result for `C/C(=C\c1ccccc1)C(=O)NCc1ccc(C(=O)NCCc2ccccc2)cc1`
Reply: False

Ask: Called result for `COc1cc([C@H]2CC(=O)C[C@H](c3cc(OC)c(OC)c(OC)c3)C23C(=O)c2ccccc2C3=O)cc(OC)c1OC`
Reply: False

Ask: Called result for `N#CC(C#N)=Cc1c[nH]c(=O)[nH]c1=O`
Reply: False

Ask: Called result for `O=C1CC(=O)n2cnc3cccc(c32)N1`
Reply: False

Ask: Called result for CCCCCCCCCCCCP(=O)(O)OCC(N)C(=O)O (centres undefined)
Reply: False

Ask: Called result for S=C1OC2CCCC[C@H]2O1 (some centres undefined)
Reply: False

Ask: Called result for CN(C)CC1CCCC/C1=N/OC(=O)c1ccc(Cl)c(Cl)c1 (centres undefined)
Reply: False

Ask: Called result for `CN1C/C(=C\c2ccco2)c2nc(N)nc(-c3ccco3)c2C1`
Reply: False

Ask: Called result for `CCc1cccc(C)c1NS(=O)(=O)c1ccccc1`
Reply: False

Ask: Called result for `Clc1ccc(-c2nc3cc(Cl)ccc3[nH]2)cc1`
Reply: False

Ask: Called result for `CCCN(CCC)C(=S)Sc1nc(C)nc(N2CCN(c3nc(C)nc(SC(=S)N(CCC)CCC)c3[N+](=O)[O-])CC2)c1[N+](=O)[O-]`
Reply: False

Ask: Called result for `CC1=C(C(=O)CC(=O)C(=O)Nc2cc(C)ccc2C)Sc2ccccc2N1`
Reply: False

Ask: Called result for `NC(=O)NN=C(CS)CS`
Reply: False

Ask: Called result for CCOC(=O)Oc1cc2c(c(OC)c1OC)-c1ccc(OC)c(=O)cc1C(NC(C)=O)CC2 (centres undefined)
Reply: True

Ask: Called result for `CC(=O)CC(=O)Nc1ccccc1[N+](=O)[O-]`
Reply: False

Ask: Called result for COc1ccc(C(OCC2OC(n3ccc(NC(=O)c4ccccc4)nc3=O)C(O)C2O)(c2ccccc2)c2ccccc2)cc1 (centres undefined)
Reply: False

* * *

Would you mind telling me the reported GI50 of each entry?
# Tested on: RXF 631
# Assay name: NCI tumour cell line growth inhibition, 48 h
Activity calls are given as the source filed them. Rule as the data show it: active = GI50 up to about 1.1 µM and inactive = higher.

Ask: Need GI50, item C=CC1(C(=O)O)CCC(C(C)(C)C)CC1 (stereo not drawn)
Reply: > 100 µM (inactive)

Ask: Need GI50, item `CS(=O)(=O)c1cc(=O)c2ccccc2s1`
Reply: 11 µM (inactive)

Ask: Need GI50, item `C[C@]12C=CC(=O)C=C1CC[C@@H]1[C@@H]2CC[C@]2(C)OC(=O)CC[C@@H]12`
Reply: > 472 µM (inactive)

Ask: Need GI50, item `C/C(CC(=O)NCCc1ccccc1)=N\NC(=O)C[n+]1ccccc1`
Reply: > 100 µM (inactive)

Ask: Need GI50, item `C(=C\c1cc(CCc2nc3ccccc3[nH]2)n[nH]1)/c1ccccc1`
Reply: > 100 µM (inactive)

Ask: Need GI50, item C=C[C@@]1(C)CCC2(O)C(CCC3C2(C)CCC[C@@]3(C)COC(=O)CC(=O)OC)C1 (stereo partly drawn)
Reply: 19.1 µM (inactive)

Ask: Need GI50, item `N#Cc1ccc(Sc2ccccc2)cc1C#N`
Reply: 30.9 µM (inactive)

Ask: Need GI50, item O=C1OC(CC(=O)c2ccc(Cl)cc2Cl)C(Cl)=C1Cl (stereo not drawn)
Reply: 31.1 µM (inactive)

Ask: Need GI50, item O=C(O)C(CS)Nc1c2ccccc2[n+]([O-])c2ccccc12 (stereo not drawn)
Reply: > 100 µM (inactive)

Ask: Need GI50, item CC(=O)NC(CCCNCc1ccccc1)C(=O)NCc1ccccc1 (stereo not drawn)
Reply: > 100 µM (inactive)

Ask: Need GI50, item `O=C(CCc1n[nH]c(=S)o1)Nc1cc(Cl)c(Cl)cc1Cl`
Reply: 44.6 µM (inactive)

Ask: Need GI50, item `COc1cc(-c2cc(=O)c3cc(C)c(C)c(C(=O)O)c3o2)cc(OC)c1OC`
Reply: > 100 µM (inactive)

Ask: Need GI50, item `CCN(CC)CCC(=O)/C=C/c1ccc(C)cc1`
Reply: 16.4 µM (inactive)

* * *

# Test system: HCC 2998
# Assay name: NCI tumour cell line growth inhibition, 48 h
Active and inactive are the calls of the source. Cut-off read from the data, not from the text of the source: active = GI50 up to about 1.1 µM and inactive = higher.
Would you mind telling me the reported GI50 of each entry?

Ask: Need GI50, item `Oc1ccc(C(c2ccc(O)cc2)c2ccc(O)cc2)cc1`
Reply: 18 µM (inactive)

Ask: Need GI50, item `CN(C)Cc1cc(/N=N/c2ccc(Cl)cc2)ccc1O`
Reply: 14.6 µM (inactive)

Ask: Need GI50, item CC(C)(C)OC(=O)NC(CSCc1ccc(C(=O)c2ccccc2)cc1)C(=O)N1CCN(CCCCN2c3ccccc3Sc3cc(N=[N+]=[N-])ccc32)CC1 (stereo not drawn)
Reply: > 100 µM (inactive)

Ask: Need GI50, item Cc1cc(O)c2c(c1O)C(=O)c1cccc(O)c1C2=O [ISLANDICIN]
Reply: > 100 µM (inactive)

Ask: Need GI50, item CN(C)CC1CCCC/C1=N/OC(=O)c1ccc(Cl)c(Cl)c1 (stereo not drawn)
Reply: > 100 µM (inactive)

Ask: Need GI50, item `O=C1NCCCc2nonc21`
Reply: > 100 µM (inactive)

Ask: Need GI50, item O=[N+]([O-])c1ccc2c(c1)nc(Cc1ccccc1)n2C[C@@H]1CCCN2CCCCC12 (stereo partly drawn)
Reply: 12.9 µM (inactive)

Ask: Need GI50, item COc1ccc(CC2c3c(cc(OC)c(OC)c3OC)CCN2C)cc1OC (stereo not drawn)
Reply: > 100 µM (inactive)

Ask: Need GI50, item `Nc1ncnc2c1sc1nc3ccccc3n12`
Reply: > 44.8 µM (inactive)

Ask: Need GI50, item `CCN(CC)CCNc1ccc2nnn3c4ccc([N+](=O)[O-])cc4c(=O)c1c23`
Reply: 25.8 µM (inactive)

Ask: Need GI50, item `CNC(=O)CN(CC(N)=O)C(=O)NC`
Reply: > 100 µM (inactive)

Ask: Need GI50, item `Cc1c2ncccc2c(C)c2c1[nH]c1ccccc12`
Reply: 12.3 µM (inactive)

Ask: Need GI50, item Cc1cc(S(=O)(=O)NC2=Nc3ccccc3C(c3ccccc3)N2)c(S)cc1Cl (stereo not drawn)
Reply: > 100 µM (inactive)

Ask: Need GI50, item `Cn1c(=O)[nH]c2c(c1=O)C(=O)CN2`
Reply: > 100 µM (inactive)

Ask: Need GI50, item O=C(NNCC(O)COc1ccccc1)c1ccccc1 (stereo not drawn)
Reply: > 100 µM (inactive)

Ask: Need GI50, item COC(=O)[C@H](Cc1c[nH]c2ccccc12)NC(=O)OCC1OC(n2cc(C)c(=O)[nH]c2=O)CC1N=[N+]=[N-] (stereo partly drawn)
Reply: > 100 µM (inactive)

Ask: Need GI50, item C#CCN(N=O)C(=O)NC(CCCNC(=O)OCc1ccccc1)C(=O)OCc1ccccc1 (stereo not drawn)
Reply: > 100 µM (inactive)

Ask: Need GI50, item C[C@@H]1CCC2C(C)(C)C(/C=C\C=O)C3(C)OC213 (stereo partly drawn)
Reply: 48.5 µM (inactive)

Ask: Need GI50, item `COc1ccc(C=C2C(=O)OC(C)(C)OC2=O)cc1OC`
Reply: > 100 µM (inactive)

Ask: Need GI50, item `N#C/C(=C\c1ccc(F)cc1)c1nc2ccccc2c(=O)[nH]1`
Reply: > 100 µM (inactive)

Ask: Need GI50, item CC(=O)OCC1OC(n2c(C)c(C)cc(C#N)c2=S)C(OC(C)=O)C(OC(C)=O)C1OC(C)=O (stereo not drawn)
Reply: > 100 µM (inactive)

Ask: Need GI50, item `CC1=C/C(=C2/N=C(N(C)C)SS2)C(C)=N1.[O-][Cl+3]([O-])([O-])O`
Reply: > 100 µM (inactive)

Ask: Need GI50, item `S=C(NCc1ccccc1)c1nc[nH]c1C(=S)NCc1ccccc1`
Reply: 10 µM (inactive)
